List of Kd values.
Target: mutant MGL (Homo sapiens, UniProt Q99685, L169S/L176S)
Construct: purified mutant MGL (mut-MGLL 11-313 L179S L186S)
Sequence (Q99685 whole entry L169S/L176S): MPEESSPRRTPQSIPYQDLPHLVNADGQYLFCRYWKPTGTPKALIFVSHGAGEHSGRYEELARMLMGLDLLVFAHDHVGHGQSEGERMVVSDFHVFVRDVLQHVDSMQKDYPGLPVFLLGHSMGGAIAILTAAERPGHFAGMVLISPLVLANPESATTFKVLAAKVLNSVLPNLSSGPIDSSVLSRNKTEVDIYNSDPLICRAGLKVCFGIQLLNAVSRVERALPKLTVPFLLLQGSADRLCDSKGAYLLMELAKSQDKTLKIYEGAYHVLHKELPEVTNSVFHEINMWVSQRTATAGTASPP
Test: MGL ThermoFluor assay - mutant
Assay type: binding
Settings: compound concentration measured by qNMR; read-out: MGL mutant ThermoFluor qKd (using qNMR conc.)
Write the number in nM without appending the unit.

Solved cases below.
{"RECORD SMILES": "O=C(c1cscn1)N1CCC(C2CN(C(=O)c3sc4cc(C(F)(F)F)ccc4c3Cl)C2)CC1", "Kd (nM)": 5.7}
{"RECORD SMILES": "O=C(c1ccc(Cc2cccc(C(F)(F)F)c2)cc1)N1CCC(C2CN(C(=O)c3nccs3)C2)CC1", "Kd (nM)": 5.9}
{"RECORD SMILES": "Cc1nc2cc(C(=O)N3CC(C4CCN(C(=O)c5nccs5)CC4)C3)ccc2n1CCC(F)(F)F", "Kd (nM)": 32.5}
{"RECORD SMILES": "O=C(c1ccc2nc(-c3ccccc3)oc2c1)N1CCC(C2CN(C(=O)c3cscn3)C2)CC1", "Kd (nM)": 6.6}
{"RECORD SMILES": "O=C(c1ccc(Cc2ccc(C(F)(F)F)cc2)cc1)N1CCC(C2CN(C(=O)c3nccs3)C2)CC1", "Kd (nM)": 17.4}

Look up mutant MGL (Homo sapiens, UniProt Q99685, L169S/L176S) data: Kd of `O=C(c1nccs1)N1CC(C2CCN(C(=O)c3ccc(-c4ccccc4)cc3F)CC2)C1` , then report it.
12.2

Param request: Kd | system mutant MGL (Homo sapiens, UniProt Q99685, L169S/L176S) | item `Cc1nc2cc(C(=O)N3CC(C4CCN(C(=O)c5nccs5)CC4)C3)ccc2n1-c1ccc(F)c(F)c1`
13.3

Enter Kd (test system mutant MGL (Homo sapiens, UniProt Q99685, L169S/L176S)) for `O=C(c1ccc2c(ccn2-c2ccc(C(F)(F)F)cc2)c1)N1CC(C2CCN(C(=O)c3ccc[nH]3)CC2)C1`
26.4

Give mutant MGL (Homo sapiens, UniProt Q99685, L169S/L176S) Kd for the following compound: `O=C(c1cccc(-c2cccc(F)c2)c1)N1CCC(C2CN(C(=O)c3ccc[nH]3)C2)CC1`
33.3

Answer briefly: Kd recorded on mutant MGL (Homo sapiens, UniProt Q99685, L169S/L176S) for `O=C(c1ccc2c(c1)[nH]c(=O)n2-c1ccc(F)cc1)N1CC(C2CCN(C(=O)c3nccs3)CC2)C1`
22.1

With mutant MGL (Homo sapiens, UniProt Q99685, L169S/L176S) as the test system, provide measured Kd for this compound: `O=C(c1ccc(Cc2ccc(C(F)(F)F)cc2)cc1)N1CC(C2CCN(C(=O)c3ccc[nH]3)CC2)C1`
48.9

---

Below: a set of entries, each annotated with reported 2-AG accumulation, percent of vehicle control at 1 µM.
Biological target: MGL (Rattus norvegicus)
Construct: one g rat brain was homogenized; from tissue; host or cells: rat brain homogenate
Sequence (Q8R431 1-303): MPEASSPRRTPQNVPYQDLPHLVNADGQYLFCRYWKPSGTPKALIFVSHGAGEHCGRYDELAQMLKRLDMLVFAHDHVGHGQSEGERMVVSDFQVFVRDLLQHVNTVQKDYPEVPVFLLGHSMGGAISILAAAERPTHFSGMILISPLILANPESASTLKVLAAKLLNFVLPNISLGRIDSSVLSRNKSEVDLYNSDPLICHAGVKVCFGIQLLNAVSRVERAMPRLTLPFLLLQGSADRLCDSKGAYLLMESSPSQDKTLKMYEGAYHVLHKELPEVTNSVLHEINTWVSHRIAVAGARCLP
Assay: 2-AG accumulation assay in rat brain homogenate
Type: biochemical
Settings: compound @1 μM, read-out: Rat Brain 2AG % VehCntrl (%) @1 μM
Kindly answer with a numeric value in %, unit omitted.

{"COMPOUND": "O=C(c1ccc2c(ccn2-c2ccc(C(F)(F)F)cc2)c1)N1CC(C2CCN(C(=O)c3cscn3)CC2)C1 [Cpd 37]", "RECORDED NUMBER": 163}
{"COMPOUND": "O=C(c1ccc2c(ccn2-c2ccc(F)cc2)c1)N1CC(C2CCN(C(=O)c3nccs3)CC2)C1 [Cpd 30]", "RECORDED NUMBER": 443}
{"COMPOUND": "O=C(c1ccc(-c2ccccc2)cc1)N1CC(C2CCN(C(=O)c3nccs3)CC2)C1 [Cpd 2]", "RECORDED NUMBER": 329}
{"COMPOUND": "O=C(c1cscn1)N1CC(C2CCN(C(=O)c3sc4cc(C(F)(F)F)ccc4c3Cl)CC2)C1 [Cpd 70]", "RECORDED NUMBER": 561}
{"COMPOUND": "O=C(c1ccc[nH]1)N1CCC(C2CN(C(=O)c3sc4cc(C(F)(F)F)ccc4c3Cl)C2)CC1 [Cpd 41]", "RECORDED NUMBER": 272}

Report 2-AG accumulation, percent of vehicle control at 1 µM, nothing else, for this compound: O=C(c1nccs1)N1CCC(C2CN(C(=O)c3ccc(-c4ccccc4)cc3F)C2)CC1 [Cpd 15]
281

In one line, give reported 2-AG accumulation, percent of vehicle control at 1 µM of the entry O=C(c1ccc2c(ccn2-c2ccc(F)c(F)c2)c1)N1CC(C2CCN(C(=O)c3cscn3)CC2)C1 [Cpd 38] .
425

Using the record for O=C(c1ccc[nH]1)N1CCC(C2CN(C(=O)c3ccc(-c4ccccc4)cc3F)C2)CC1 [Cpd 21] , state its measured 2-AG accumulation, percent of vehicle control at 1 µM.
287

Provenance of the data: patent US8513423B2
